SUBJECT OF TEST: Histone deacetylase 1 (Homo sapiens, UniProt Q13547)
Sequence (Q13547 whole entry): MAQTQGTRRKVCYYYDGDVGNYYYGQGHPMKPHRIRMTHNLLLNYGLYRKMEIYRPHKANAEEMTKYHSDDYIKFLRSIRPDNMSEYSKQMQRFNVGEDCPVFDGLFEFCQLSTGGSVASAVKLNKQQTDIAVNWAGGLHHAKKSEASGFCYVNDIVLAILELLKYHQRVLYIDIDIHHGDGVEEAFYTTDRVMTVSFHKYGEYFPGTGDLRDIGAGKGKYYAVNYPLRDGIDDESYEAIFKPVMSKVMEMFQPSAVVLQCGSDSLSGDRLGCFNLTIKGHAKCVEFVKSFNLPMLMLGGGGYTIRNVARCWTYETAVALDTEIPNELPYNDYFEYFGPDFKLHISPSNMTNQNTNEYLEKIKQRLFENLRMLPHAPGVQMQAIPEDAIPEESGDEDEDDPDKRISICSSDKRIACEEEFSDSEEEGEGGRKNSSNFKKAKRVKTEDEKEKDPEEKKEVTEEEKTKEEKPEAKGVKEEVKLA
pIC50: −log10 of the molar value.
MEASURED QUANTITY: pIC50

INPUT: What value of pIC50 has been recorded for this entry: `CN1CCN(c2c(N(Cc3ccc(-c4nnc(C(F)F)o4)cc3F)c3cc(F)cc(-c4ccncc4)c3)c(=O)c2=O)CC1`
OUTPUT: < 5.00
